Origin of values: ChEMBL document CHEMBL1141192

# ASSAY_DETAILS: Maximum concentration in rat at 3 mg/kg, po
# Assay type: ADME, organism-based
# Set-up: dose 3 mg/kg, route oral
# COND: in vivo
PROPERTY: Cmax (ng/mL)
Give just the number in ng/mL; leave the unit off.

**Query** Fill in the blank: the reported Cmax of C[C@H]1O[C@@H](n2cc(-c3ccccc3)c3c(NCC(=O)NC4CC4)ncnc32)[C@H](O)[C@@H]1O is ____.
**Result** 660

###

Exercise: state measured solubility for each of the molecules provided.
# ASSAY_DETAILS: Solubility in water at pH 7.4
Supply the numeric figure in µg/mL, leaving out any unit text.

**Query** So what does the record say about solubility for O=C(CNc1ncnc2c1c(-c1ccccc1)nn2[C@@H]1O[C@H](CO)[C@@H](O)[C@H]1O)Nc1ccccc1 ?
**Result** 7

**Query** # solubility lookup, item C[C@H]1O[C@@H](n2cc(-c3ccccc3)c3c(NCC(=O)NC4CCCC4)ncnc32)[C@H](O)[C@@H]1O
**Result** 6

**Query** Entry C[C@H]1O[C@@H](n2cc(-c3ccccc3)c3c(NCC(N)=O)ncnc32)[C@H](O)[C@@H]1O has what solubility?
**Result** 750

**Query** Which value of solubility has been reported for C[C@H]1O[C@@H](n2cc(-c3ccccc3)c3c(NC(=O)C(=O)NC4CC4)ncnc32)[C@H](O)[C@@H]1O in the records?
**Result** 17

**Query** Recorded solubility of C[C@H]1O[C@@H](n2cc(-c3ccccc3)c3c(NCC(=O)N(C)C4CC4)ncnc32)[C@H](O)[C@@H]1O , please.
**Result** 105

**Query** Fill in the blank: the reported solubility of CCCNC(=O)CNc1ncnc2c1c(-c1ccccc1)cn2[C@@H]1O[C@H](C)[C@@H](O)[C@H]1O is ____.
**Result** 38

**Query** Which solubility reading was recorded for the molecule COCCNC(=O)CNc1ncnc2c1c(-c1ccccc1)cn2[C@@H]1O[C@H](C)[C@@H](O)[C@H]1O ?
**Result** 230

**Query** solubility lookup needed for CC(C)NC(=O)CNc1ncnc2c1c(-c1ccccc1)cn2[C@@H]1O[C@H](C)[C@@H](O)[C@H]1O , thanks.
**Result** 26

**Query** solubility lookup needed for CNC(=O)CNc1ncnc2c1c(-c1ccccc1)cn2[C@@H]1O[C@H](C)[C@@H](O)[C@H]1O , thanks.
**Result** 240

**Query** What value of solubility has been recorded for this entry: C[C@H]1O[C@@H](n2cc(-c3ccccc3)c3c(NCC(=O)NCCCO)ncnc32)[C@H](O)[C@@H]1O
**Result** 650

**Query** // lookup solubility for O=C(CNc1ncnc2c1c(-c1ccccc1)cn2COCCO)NC1CC1
**Result** 270

**Query** I have this molecule here, C[C@H]1O[C@@H](n2nc(-c3ccccc3)c3c(NCC(=O)NC4CC4)ncnc32)[C@H](O)[C@@H]1O , and I need its recorded solubility.
**Result** 620

**Query** # input molecule: C[C@H]1O[C@@H](n2cc(-c3ccccc3)c3c(NC4CC4)ncnc32)[C@H](O)[C@@H]1O ; wanted: its solubility
**Result** 36

**Query** Sample CCNC(=O)CNc1ncnc2c1c(-c1ccccc1)cn2[C@@H]1O[C@H](C)[C@@H](O)[C@H]1O — what was its solubility?
**Result** 140
